Tested on: UACC-62 melanoma
Assay Explanation: NCI-60 one-dose screen, 48 h
Condition Context: 10 µM
The panel holds about 83,000 compounds, 20% with a hit somewhere; the sample as a whole holds those more often. Active and inactive are the calls of the source. How the source made its calls: active means growth percent below 10; inactive means the rest.
Outcome (select one): True (active), False (inactive)

**Query** What call does the record list for COc1cc(C(C)(C)C)cc(OC)c1C(O)(c1c(OC)cc(C(C)(C)C)cc1OC)c1c(OC)cc(C(C)(C)C)cc1OC ?
**Result** True

**Query** What call does the record list for CN(C)CCC(=O)c1c[nH]c2ccccc12 ?
**Result** False

**Query** What call does the record list for Cc1cc(NCCCN(C)C)c2ccc3c(ccc4c(NCCCN(C)C)cc(C)nc43)c2n1 ?
**Result** True

**Query** What call does the record list for Nc1ccc2cc(Br)c3ccccc3c2c1 ?
**Result** False

**Query** What call does the record list for CN1CCN(c2ccc3nc(-c4ccc5nc(-c6ccc(O)cc6)[nH]c5c4)[nH]c3c2)CC1 ?
**Result** False

**Query** What call does the record list for BrC/C=C/C[P+](c1ccccc1)(c1ccccc1)c1ccccc1 ?
**Result** False

**Query** What call does the record list for CCCCCCCCCCCCCCCCCN ?
**Result** False

**Query** What call does the record list for O=C(/C(=C/c1ccccc1)CBr)c1ccccc1 ?
**Result** False

**Query** What call does the record list for N#C/C(=C1C=C/C(=N\O)C(Cl)=C\1)c1ccccc1 ?
**Result** False

**Query** What call does the record list for CSc1ccc2c(c1)C(N1CCN(C)CC1)Cc1ccccc1S2 (stereo unspecified) ?
**Result** True

**Query** What call does the record list for Cc1cnc(/C=N\NC(N)=S)c2cccc(N)c12 ?
**Result** True

###

Test system: OVCAR-5 ovarian
Assay Explanation: NCI-60 one-dose screen, 48 h (100 = growth as untreated, 0 = no growth, -100 = all killed)
Condition Context: 10 µM
Compounds without any hit were thinned out: in the full panel of roughly 83,000, 20% have a hit.
Quantity Name: growth (%)
Answers are plain numbers, in %.

Take each entry in turn and give its growth.
1. Cc1cc(NCCCN(C)C)c2ccc3c(ccc4c(NCCCN(C)C)cc(C)nc43)c2n1
2. CN(C)CCC(=O)c1c[nH]c2ccccc12
3. Cc1cnc(/C=N\NC(N)=S)c2cccc(N)c12
4. S=c1[nH]nc(Cc2ccccc2)c(=S)[nH]1
5. O=C(/C(=C/c1ccccc1)CBr)c1ccccc1
6. CN1CCN(c2ccc3nc(-c4ccc5nc(-c6ccc(O)cc6)[nH]c5c4)[nH]c3c2)CC1

**Result**
[-15.4, 109, 34.9, 107, 122, 61.9]

**Query** I am curious: what growth value has been reported for CCCCCCCCCCCCCCCCCN ?
**Result** 106

###

Exercise: for every item that follows, state its recorded growth.
Test system: NCI-H522 lung
Assay Explanation: NCI-60 one-dose screen, 48 h (100 = growth as untreated, 0 = no growth, -100 = all killed)
Condition Context: 10 µM
About 83,000 compounds went through this panel and 20% of them were active in at least one assay; those are over-represented in the sample as a whole. Starred links: 1 amine or outer side, 2 acyl side, 3 side chain; linkers in the order of their positions; H or OH if unused. Positions of bridges follow the written chain, without caps; N, C: chain ends. Non-standard residues stand in square brackets, D forms with d. Residues, ends and D or L forms follow the SMILES beside them. Chains are numbered I, II in the order given. Actinocin(9to1) = Cc1c2oc3c(C)ccc(C(=O)[*:1])c3nc-2c(C(=O)[*:2])c(N)c1=O; aThr = C[C@H](O)[C@H](N)C(=O)O; NMeV = CN[C@H](C(=O)O)C(C)C; Sar = CNCC(=O)O
Numbers only, in %.

Consider the worked cases shown below.
| Molecule | Test Target | growth [%] |
| --- | --- | --- |
| O=C(/C(=C/c1ccccc1)CBr)c1ccccc1 | NCI-H522 lung | 55.8 |
| Cc1cnc(/C=N\NC(N)=S)c2cccc(N)c12 | NCI-H522 lung | -1.74 |
| S=c1[nH]nc(Cc2ccccc2)c(=S)[nH]1 | NCI-H522 lung | 88 |

Take each entry in turn and give its growth.
1. COc1cc(C(C)(C)C)cc(OC)c1C(O)(c1c(OC)cc(C(C)(C)C)cc1OC)c1c(OC)cc(C(C)(C)C)cc1OC
2. BrC/C=C/C[P+](c1ccccc1)(c1ccccc1)c1ccccc1
3. Cc1c2oc3c(C)ccc(C(=O)N[C@@H]4C(=O)N[C@H](C(C)C)C(=O)N5CCC[C@H]5C(=O)N(C)CC(=O)N(C)[C@@H](C(C)C)C(=O)O[C@H]4C)c3nc-2c(C(=O)N[C@@H]2C(=O)N[C@H](C(C)C)C(=O)N3CCC[C@H]3C(=O)N(C)CC(=O)N(C)[C@@H](C(C)C)C(=O)O[C@H]2C)c(N)c1=O (I: [aThr][dV]P[Sar][NMeV] / II: [aThr][dV]P[Sar][NMeV]; ester I:1-I:C, II:1-II:C; linker I:N-II:N via Actinocin(9to1))
4. CN(C)CCC(=O)c1c[nH]c2ccccc12

**Result**
[-56.4, 40, -38.4, 91.8]

###

Exercise: for every item that follows, state its recorded growth.
Tested on: RXF 393 renal
Assay Explanation: NCI-60 one-dose screen, 48 h (100 = growth as untreated, 0 = no growth, -100 = all killed)
Condition Context: 10 µM
This is part of a sample that, as a whole, favours compounds with a hit. Of some 83,000 tested, about 20% had one in any assay.
One number for each entry, in %.

| Compound | Assay Value |
| --- | --- |
| N#C/C(=C1C=C/C(=N\O)C(Cl)=C\1)c1ccccc1 | 43.9 |

Take each entry in turn and give its growth.
1. O=C(/C(=C/c1ccccc1)CBr)c1ccccc1
2. S=c1[nH]nc(Cc2ccccc2)c(=S)[nH]1
3. Cc1cc(NCCCN(C)C)c2ccc3c(ccc4c(NCCCN(C)C)cc(C)nc43)c2n1
4. CSc1ccc2c(c1)C(N1CCN(C)CC1)Cc1ccccc1S2 (stereo not given)

**Result**
1: 71.7; 2: 103; 3: -83.4; 4: 25.1

###

Tested on: SR leukemia
Assay Explanation: NCI-60 one-dose screen, 48 h (100 = growth as untreated, 0 = no growth, -100 = all killed)
Condition Context: 10 µM
The panel holds about 83,000 compounds, 20% with a hit somewhere; the sample as a whole holds those more often. Starred links: 1 amine or outer side, 2 acyl side, 3 side chain; linkers in the order of their positions; H or OH if unused. Positions of bridges follow the written chain, without caps; N, C: chain ends. Non-standard residues stand in square brackets, D forms with d. Residues, ends and D or L forms follow the SMILES beside them. Chains are numbered I, II in the order given. Actinocin(9to1) = Cc1c2oc3c(C)ccc(C(=O)[*:1])c3nc-2c(C(=O)[*:2])c(N)c1=O; aThr = C[C@H](O)[C@H](N)C(=O)O; NMeV = CN[C@H](C(=O)O)C(C)C; Sar = CNCC(=O)O
Exercise: for every item that follows, state its recorded growth.
Answers are plain numbers, in %.

| Compound | growth / % |
| --- | --- |
| CN1CCN(c2ccc3nc(-c4ccc5nc(-c6ccc(O)cc6)[nH]c5c4)[nH]c3c2)CC1 | 67 |

Take each entry in turn and give its growth.
1. Cc1c2oc3c(C)ccc(C(=O)N[C@@H]4C(=O)N[C@H](C(C)C)C(=O)N5CCC[C@H]5C(=O)N(C)CC(=O)N(C)[C@@H](C(C)C)C(=O)O[C@H]4C)c3nc-2c(C(=O)N[C@@H]2C(=O)N[C@H](C(C)C)C(=O)N3CCC[C@H]3C(=O)N(C)CC(=O)N(C)[C@@H](C(C)C)C(=O)O[C@H]2C)c(N)c1=O (I: [aThr][dV]P[Sar][NMeV] / II: [aThr][dV]P[Sar][NMeV]; ester I:1-I:C, II:1-II:C; linker I:N-II:N via Actinocin(9to1))
2. COc1cc(C(C)(C)C)cc(OC)c1C(O)(c1c(OC)cc(C(C)(C)C)cc1OC)c1c(OC)cc(C(C)(C)C)cc1OC
3. Cc1cnc(/C=N\NC(N)=S)c2cccc(N)c12
4. CN(C)CCC(=O)c1c[nH]c2ccccc12
5. CSc1ccc2c(c1)C(N1CCN(C)CC1)Cc1ccccc1S2 (stereo not drawn)
6. Nc1ccc2cc(Br)c3ccccc3c2c1
7. CCCCCCCCCCCCCCCCCN

**Result**
1. 3.04
2. -77.5
3. -16.3
4. 91.5
5. -32.8
6. 57.5
7. 57.8

###

System: SF-268 CNS
Assay Explanation: NCI-60 one-dose screen, 48 h (100 = growth as untreated, 0 = no growth, -100 = all killed)
Condition Context: 10 µM
About 83,000 compounds went through this panel and 20% of them were active in at least one assay; those are over-represented in the sample as a whole. Starred links: 1 amine or outer side, 2 acyl side, 3 side chain; linkers in the order of their positions; H or OH if unused. Positions of bridges follow the written chain, without caps; N, C: chain ends. Non-standard residues stand in square brackets, D forms with d. Residues, ends and D or L forms follow the SMILES beside them. Chains are numbered I, II in the order given. Actinocin(9to1) = Cc1c2oc3c(C)ccc(C(=O)[*:1])c3nc-2c(C(=O)[*:2])c(N)c1=O; aThr = C[C@H](O)[C@H](N)C(=O)O; NMeV = CN[C@H](C(=O)O)C(C)C; Sar = CNCC(=O)O
Quantity Name: growth (%)
Give bare numbers, in %.

| Molecule | growth [%] |
| --- | --- |
| CN1CCN(c2ccc3nc(-c4ccc5nc(-c6ccc(O)cc6)[nH]c5c4)[nH]c3c2)CC1 | 82.9 |

Take each entry in turn and give its growth.
1. S=c1[nH]nc(Cc2ccccc2)c(=S)[nH]1
2. Cc1cnc(/C=N\NC(N)=S)c2cccc(N)c12
3. Cc1cc(NCCCN(C)C)c2ccc3c(ccc4c(NCCCN(C)C)cc(C)nc43)c2n1

**Result**
1: 90.3; 2: 2.26; 3: -86.1

Take each entry in turn and give its growth.
1. BrC/C=C/C[P+](c1ccccc1)(c1ccccc1)c1ccccc1
2. Cc1c2oc3c(C)ccc(C(=O)N[C@@H]4C(=O)N[C@H](C(C)C)C(=O)N5CCC[C@H]5C(=O)N(C)CC(=O)N(C)[C@@H](C(C)C)C(=O)O[C@H]4C)c3nc-2c(C(=O)N[C@@H]2C(=O)N[C@H](C(C)C)C(=O)N3CCC[C@H]3C(=O)N(C)CC(=O)N(C)[C@@H](C(C)C)C(=O)O[C@H]2C)c(N)c1=O (I: [aThr][dV]P[Sar][NMeV] / II: [aThr][dV]P[Sar][NMeV]; ester I:1-I:C, II:1-II:C; linker I:N-II:N via Actinocin(9to1))
3. O=C(/C(=C/c1ccccc1)CBr)c1ccccc1
4. COc1cc(C(C)(C)C)cc(OC)c1C(O)(c1c(OC)cc(C(C)(C)C)cc1OC)c1c(OC)cc(C(C)(C)C)cc1OC
5. CSc1ccc2c(c1)C(N1CCN(C)CC1)Cc1ccccc1S2 (centres undefined)

**Result**
[58.7, -9.34, 84.4, -77, 36.7]

Taken from PubChem BioAssay (NCI).
